Measured values drawn from PubChem BioAssay for this set.

TARGET_OR_TEST_SYSTEM: Pantothenate synthetase (Mycobacterium tuberculosis (strain ATCC 25618 / H37Rv)) (UniProt P9WIL5)
Sequence (P9WIL5 whole entry, looked up): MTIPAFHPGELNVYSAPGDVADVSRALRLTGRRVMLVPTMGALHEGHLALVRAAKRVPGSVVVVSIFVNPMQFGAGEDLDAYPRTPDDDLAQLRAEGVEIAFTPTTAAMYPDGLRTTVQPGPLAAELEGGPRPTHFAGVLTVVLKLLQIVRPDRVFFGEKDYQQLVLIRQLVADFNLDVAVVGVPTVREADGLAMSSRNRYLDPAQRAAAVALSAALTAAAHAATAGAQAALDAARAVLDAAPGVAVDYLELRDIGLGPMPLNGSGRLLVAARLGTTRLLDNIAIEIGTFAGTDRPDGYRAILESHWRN
EXPERIMENTAL_PROTOCOL: Coupled enzyme confirmation of inhibitors against recombinant Mtb PanC (AID 375);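 further: 0% = full reaction with vehicle and 100% = no enzyme background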
MEASUREMENT_SETUP: coupled enzyme assay; at 10 µM, active compounds read high
READOUT_NAME: inhibition (%)
Please respond with the number in % and leave the unit unwritten.

Completed entries (count: 2):
CCNC(=O)C1CC(=O)N(Cc2ccc3c(c2)OCO3)C(=Nc2ccc(F)cc2)S1 (stereo unspecified) | 0
CC(=O)c1c(C)[nH]c(C(=O)NC2=NCCS2)c1C | 0

## Task Fill in the blank: the reported inhibition of C=CCSc1nc(N)c2c(C)c(C)sc2n1 is ____.
## Result 0

## Task Fill in the blank: the reported inhibition of CN1C(=O)CSc2ccc(NC(=O)N3CCN(c4ccccn4)CC3)cc21 is ____.
## Result 8

## Task Fill in the blank: the reported inhibition of O=C(O)CCc1ccc(-c2cccs2)n1NC(=O)c1ccco1 is ____.
## Result 0

## Task Fill in the blank: the reported inhibition of COc1ccc(-n2c(Cc3cccn3C)nnc2SCC(=O)NCC2CCCO2)cc1 (stereo unspecified) is ____.
## Result 11

## Task Fill in the blank: the reported inhibition of CC(C)Oc1ccc2c(=O)c(-c3ccccc3)coc2c1 is ____.
## Result 4

## Task Fill in the blank: the reported inhibition of Cc1cc(C)c2c(n1)nn1c(N3CCN(c4cccc(Cl)c4)CC3)cc(C)nc21 is ____.
## Result 5

## Task Fill in the blank: the reported inhibition of CCCn1c(SCC(=O)NCCc2ccccc2)nnc1-c1ccccn1 is ____.
## Result 6

## Task Fill in the blank: the reported inhibition of CCOCCCNC(=O)C1CCC(CNS(=O)(=O)c2cccc3nsnc23)CC1 (stereo unspecified) is ____.
## Result 1

## Task Fill in the blank: the reported inhibition of O=S(=O)(NCCc1ccccc1F)c1cccc(S(=O)(=O)N2CCOCC2)c1 is ____.
## Result 0
